FYI, the data here is from paper PMC10663500.

# TARGET_OF_ASSAY: T1, human programmed cell death protein 1 (hPD-1) C93S (aa 24-167) (Homo sapiens, UniProt Q15116, C93S)
# T1 construct: made as a fusion with a TEV site and human Fc; the Fc was cut off with TEV protease; source: Expi293F, purified (Protein A, TEV cleavage of Fc, SEC; monomer fractions); not shown: Fc (human), C-terminal, cleaved
# ASSAY_DETAILS: SPR; Carterra LSA; Fab from the ammonium sulfate precipitate of the culture supernatant immobilised on a NiHC200M chip; hPD-1 (1-1024 nM) or mPD-1-Fc (4-1024 nM) as analyte, fourfold dilution series, no regeneration; HBS-EP pH 7.4, 25 °C; medians over the spots of a construct, KD = koff/kon
# MEASUREMENT_PARAMETERS: one partner purified
MEASURED_QUANTITY: kon (M⁻¹ s⁻¹)
I only need the number, in M⁻¹ s⁻¹, no unit after it.

The examples below pair each entry with its known result.
{"BINDER": "toripalimab Fab L.Q95Y (Fab, V domains shown, as the heavy chain of Sm3; light chain of Sm3 with this change; numbers count from the chain's first residue; source: Brevibacillus, culture supernatant (ammonium sulfate precipitate); not shown: 6xHis, C-terminal, kept; 6xHN, C-terminal, kept) VH: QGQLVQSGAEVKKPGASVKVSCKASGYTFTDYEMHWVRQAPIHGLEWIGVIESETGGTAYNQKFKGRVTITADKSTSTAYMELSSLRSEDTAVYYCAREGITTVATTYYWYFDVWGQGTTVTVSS VL: DVVMTQSPLSLPVTLGQPASISCRSSQSIVHSNGNTYLEWYLQKPGQSPQLLIYKVSNRFSGVPDRFSGSGSGTDFTLKISRVEAEDVGVYYCFYGSHVPLTFGQGTKLEIK", "kon / M⁻¹ s⁻¹": 13300}
{"BINDER": "toripalimab Fab L.N58A (Fab, V domains shown, as the heavy chain of Sm3; light chain of Sm3 with this change; numbers count from the chain's first residue; source: Brevibacillus, culture supernatant (ammonium sulfate precipitate); not shown: 6xHis, C-terminal, kept; 6xHN, C-terminal, kept) VH: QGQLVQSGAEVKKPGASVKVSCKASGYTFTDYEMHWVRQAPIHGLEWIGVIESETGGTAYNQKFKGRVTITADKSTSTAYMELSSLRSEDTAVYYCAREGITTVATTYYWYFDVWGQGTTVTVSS VL: DVVMTQSPLSLPVTLGQPASISCRSSQSIVHSNGNTYLEWYLQKPGQSPQLLIYKVSARFSGVPDRFSGSGSGTDFTLKISRVEAEDVGVYYCFQGSHVPLTFGQGTKLEIK", "kon / M⁻¹ s⁻¹": 7630}

GET /value?item= toripalimab Fab H.K65Y (Fab, V domains shown, heavy chain of Sm3 with this change; numbers count from the chain's first residue; as the light chain of Sm3; source: Brevibacillus, culture supernatant (ammonium sulfate precipitate); not shown: 6xHis, C-terminal, kept; 6xHN, C-terminal, kept) VH: QGQLVQSGAEVKKPGASVKVSCKASGYTFTDYEMHWVRQAPIHGLEWIGVIESETGGTAYNQKFYGRVTITADKSTSTAYMELSSLRSEDTAVYYCAREGITTVATTYYWYFDVWGQGTTVTVSS VL: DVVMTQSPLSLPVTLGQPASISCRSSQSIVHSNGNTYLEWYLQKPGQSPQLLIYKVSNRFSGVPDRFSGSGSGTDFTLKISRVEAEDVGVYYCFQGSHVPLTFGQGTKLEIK &field=kon returns 16300
